Kindly supply the reported DC50 values for the records listed here.
Target: PTPN2 (HiBIT-PTPN2 in 293T.109 cells) (Homo sapiens)
Construct: expressed in transfected cells; host or cells: 293T.109 (293T WT from ATCC)
Sequence (P17706 whole entry, species assumed): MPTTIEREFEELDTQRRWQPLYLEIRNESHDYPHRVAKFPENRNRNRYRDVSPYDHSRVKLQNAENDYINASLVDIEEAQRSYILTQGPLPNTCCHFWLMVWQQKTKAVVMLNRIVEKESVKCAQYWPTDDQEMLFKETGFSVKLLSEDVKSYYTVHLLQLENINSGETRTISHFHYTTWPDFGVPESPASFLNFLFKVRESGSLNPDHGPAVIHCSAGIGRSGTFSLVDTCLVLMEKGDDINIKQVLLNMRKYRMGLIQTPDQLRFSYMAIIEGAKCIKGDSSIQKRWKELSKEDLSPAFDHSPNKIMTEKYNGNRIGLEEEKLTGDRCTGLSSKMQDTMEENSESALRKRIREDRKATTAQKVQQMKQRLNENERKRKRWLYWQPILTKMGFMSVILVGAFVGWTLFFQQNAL
Assay: HiBiT Degradation 293T.109 PTPN2 (Nano-Glo HiBiT Lytic Assay)
Format: cell-based
Conditions: 24.0 hours
Method: Dulbecco's modified Eagle medium (DMEM) without phenol red and fetal bovine serum (FBS) were purchased from Gibco (Grand Island, NY, USA). Nano-Glo® HiBIT Lytic Assay System was purchased from Promega (Madison, WI, USA). […] PTPN2 degradation was determined based on quantification of luminescent signal using Nano-Glo® HiBIT Lytic Assay kit. […] Luminescence was acquired on EnVision™ Multilabel Reader (PerkinElmer, Santa Clara, CA, USA).

Exercise: Output measured DC50 for this item: CC1(C)C[C@H](Oc2cccc(-c3sc(C(=O)O)c(OCC(=O)O)c3Cl)c2)CCN1S(=O)(=O)Cc1cccc(NC(=O)N2CCC(c3ccc4c5c(cccc35)C(=O)N4C3CCC(=O)NC3=O)CC2)c1 (stereo partly drawn) [Example 227]
Key: 200 to 1000 nM

Exercise: // fetch DC50 given entry CC1(C)C[C@@H](Nc2cccc(-c3sc(C(=O)O)c(OCC(=O)O)c3Cl)c2)CCN1S(=O)(=O)Cc1ccc(F)c(NC(=O)N2CCC(c3ccc4c5c(cccc35)C(=O)N4C3CCC(=O)NC3=O)CC2)c1 (stereo partly drawn) [Example 126]
Key: 50 to 200 nM

Exercise: Dear colleague, please send me the reported DC50 for O=C(O)COc1c(C(=O)O)sc(-c2cccc(NC3CCN(S(=O)(=O)Cc4cccc(NC(=O)CCN5CCC(Nc6cccc7c6CN(C6CCC(=O)NC6=O)C7=O)CC5)c4)CC3)c2)c1Cl (stereo not drawn) [Example 50] when you can.
Key: < 50 nM
